tested on: MCF7; test: Antiproliferative activity against human MCF7 cells assessed as reduction in cell viability after 72 hrs by MTT assay; conditions: MCF7, 72 h
readout.label: IC50 (µM)
Numbers only, in µM.

C=C1C(=O)[C@]23[C@H](OC(=O)CCCC(=O)OCCCOc4ccc(-c5cc(=S)ss5)cc4)[C@H]1CC[C@H]2[C@@]12CO[C@@]3(O)[C@@H](O)[C@@H]1C(C)(C)CCC2=O
12.5
C=C1C(=O)[C@]23[C@H](OC(=O)CCC(=O)OCCCOc4ccc(-c5cc(=S)ss5)cc4)[C@H]1CC[C@H]2[C@@]12CO[C@@]3(O)[C@@H](O)[C@@H]1C(C)(C)CCC2=O
19.5
C=C1C(=O)[C@]23[C@H](OC(=O)CCCC(=O)OCCOc4ccc(-c5cc(=S)ss5)cc4)[C@H]1CC[C@H]2[C@@]12CO[C@@]3(O)[C@@H](O)[C@@H]1C(C)(C)CC[C@@H]2O
18.3

-- ask Report IC50, nothing else, for this molecule: O=c1[nH]cc(F)c(=O)[nH]1 [FLUOROURACIL]
-- reply 26.7
